System: Vero E6 infected with SARS-CoV-2
Assay: inhibition of SARS-CoV-2 cytopathic effect; higher = more antiviral protection, active = above 15
Conditions: 100 nM; 48 h
Items are presented alongside their recorded inhibition of SARS-CoV-2 cytopathic effect.
Express your answer in %, writing the number without its unit.

Example entries begin here.
Please fill in: inhibition of SARS-CoV-2 cytopathic effect reported for "CC(=O)Oc1ccccc1C(=O)Oc1cccc(CO[N+](=O)[O-])c1" = -0.7

Measured inhibition of SARS-CoV-2 cytopathic effect, NS(=O)(=O)c1cc2c(cc1Cl)N=CNS2(=O)=O [chlorothiazide] : -0.95

Value of inhibition of SARS-CoV-2 cytopathic effect reported for the compound "Cc1coc2c1C(=O)C(=O)c1c-2ccc2c1CCCC2(C)C" is 0.8

Reported inhibition of SARS-CoV-2 cytopathic effect for CCCN1CCCC(c2cccc(O)c2)C1 (stereo in doubt) was 0.42

Record "CN(C)/N=N/c1[nH]cnc1C(N)=O" . Reported inhibition of SARS-CoV-2 cytopathic effect: 2.4

Field inhibition of SARS-CoV-2 cytopathic effect (entry "O=C(O)C(=O)O.[NH-][C@@H]1CCCC[C@H]1[NH-].[Pt+2]" ) reads 10.3

In plain terms, "O=C1c2ccccc2C(=O)C1c1ccc(Cl)cc1" has a documented inhibition of SARS-CoV-2 cytopathic effect of -3.27

What the record says about "Cn1nccc1Nc1nccc(-c2ccn([C@H](CO)c3ccc(Cl)c(F)c3)c(=O)c2)n1" : inhibition of SARS-CoV-2 cytopathic effect is -0.395

Further cases:
inhibition of SARS-CoV-2 cytopathic effect for Oc1cccc(Nc2ccc(Nc3cccc(O)c3)nn2)c1 [beta-amyloid-synthesis-inhibitor] is 0.24
